// data source = the supplement of paper PMC7411054

Tested on: HepG2-GM130-SQSTM1
assay_text: phenotypically active (imaging signature differs from DMSO and reproducible) at any of 0.3-9 uM (binary (1 = active, 0 = inactive)); higher = active
setup_conditions: treatment time: 24 h
Where a name gives a salt, the structure may show the parent alone.
Labels: t = active, f = inactive

>  <compound>
C=C[C@H]1CN2CC[C@H]1C[C@H]2[C@H](O)c1ccnc2ccc(OC)cc12 [Quinine dihydrochloride]

>  <label_class>
f

$$$$
>  <compound>
O=C(NCCO)c1cc(C(=O)NCCO)cc(C(=O)NCCO)c1

>  <label_class>
f

$$$$
>  <compound>
Cc1cc2nc(NCCCO)n(CC(=O)c3cc(C(C)(C)C)c(O)c(C(C)(C)C)c3)c2cc1C

>  <label_class>
f

$$$$
>  <compound>
Cc1cc(CS(=O)(=O)c2ccccc2)cc(OCc2ccc(CN3CCC[C@@H]3CO)cc2)c1 [PF 543 hydrochloride]

>  <label_class>
t

$$$$
>  <compound>
O=C(Cn1ccnc1[N+](=O)[O-])NCc1ccccc1 [benznidazole]

>  <label_class>
f

$$$$
>  <compound>
Cc1nc[nH]c1C1CCN(c2nc3cccc4c3n2CCC4=O)CC1

>  <label_class>
f

$$$$
>  <compound>
NCCCCNS(=O)(=O)c1ccc2c(Cl)cccc2c1 [W-13 hydrochloride]

>  <label_class>
f

$$$$
>  <compound>
O=C1c2ccccc2C(Cc2ccncc2)(Cc2ccncc2)c2ccccc21

>  <label_class>
f

$$$$
>  <compound>
Cn1cc(CCn2cnc(-c3cnn(C)c3)c2-c2ccc(C#N)cc2)cn1

>  <label_class>
f

$$$$
>  <compound>
C[C@]12CC[C@@H]3c4ccc(O)cc4CC[C@H]3[C@@H]1CC[C@@H]2OC(=O)CCC1CCCC1 [estradiol cypionate]

>  <label_class>
f

$$$$
>  <compound>
COc1ccccc1S(=O)(=O)Nc1ccc2c(c1)CN(C)C(=O)N2

>  <label_class>
t

$$$$
>  <compound>
c1ccc(CN(CC2=NCCN2)c2ccccc2)cc1 [antazoline]

>  <label_class>
f

$$$$
>  <compound>
Cc1c2oc3c(C)ccc(C(=O)NC4C(=O)NC(C(C)C)C(=O)N5CCCC5C(=O)N(C)CC(=O)N(C)C(C(C)C)C(=O)OC4C)c3nc-2c(C(=O)NC2C(=O)NC(C(C)C)C(=O)N3CCCC3C(=O)N(C)CC(=O)N(C)C(C(C)C)C(=O)OC2C)c(N)c1=O (stereo not drawn) [Actinomycin D]

>  <label_class>
t

$$$$
>  <compound>
O=C(O/N=C1\c2ccccc2-c2nc3ccccc3nc21)c1ccco1

>  <label_class>
f

$$$$
>  <compound>
Cc1cc(/N=N/c2ccc(S(=O)(=O)Nc3ccccn3)cc2)c(N)cc1O

>  <label_class>
t

$$$$
>  <compound>
CN(C)C(=O)C(CCN1CCC(O)(c2ccc(Cl)cc2)CC1)(c1ccccc1)c1ccccc1 [loperamide]

>  <label_class>
t

$$$$
>  <compound>
Cc1cnc(NC(=O)Nc2cc(Br)c(C)cc2OC[C@@H]2CNCCO2)cn1

>  <label_class>
t

$$$$
>  <compound>
COc1ccc(C2(CNC(=O)c3ccc(NC(=O)c4ccco4)cc3)CCOCC2)cc1

>  <label_class>
f

$$$$

###

Tested on: A549-TUBA1B-RELA
assay_text: phenotypically active (imaging signature differs from DMSO and reproducible) at any of 0.3-9 uM (binary (1 = active, 0 = inactive)); higher = active
setup_conditions: treatment time: 24 h
Structures can show the parent of a compound that is named as a salt.
Labels: YES (active), NO (inactive)

>  <molecule>
CNC[C@H](O)c1ccc(O)c(O)c1 [epinephrine]

>  <assayed_target>
A549-TUBA1B-RELA

>  <label_class>
NO

$$$$
>  <molecule>
O=C([C@H](Cc1cccc(C(F)(F)F)c1)NS(=O)(=O)c1cc(F)c2c(c1)CCNC2)N1CCCC1 [(S)-PFI 2 hydrochloride]

>  <assayed_target>
A549-TUBA1B-RELA

>  <label_class>
NO

$$$$
>  <molecule>
c1ccc2c(c1)Cc1c(Nc3ccc4c(c3)OCCO4)n[nH]c1-2

>  <assayed_target>
A549-TUBA1B-RELA

>  <label_class>
YES

$$$$
>  <molecule>
COc1ccc(N2C(=O)CSC2c2cccc(Br)c2)c(OC)c1 (stereo not drawn)

>  <assayed_target>
A549-TUBA1B-RELA

>  <label_class>
YES

$$$$
>  <molecule>
CN(C)CCc1c[nH]c2ccc(Cn3cncn3)cc12 [rizatriptan]

>  <assayed_target>
A549-TUBA1B-RELA

>  <label_class>
NO

$$$$
>  <molecule>
CNC(=O)c1ccccc1Sc1ccc2c(/C=C/c3ccccn3)n[nH]c2c1 [Axitinib]

>  <assayed_target>
A549-TUBA1B-RELA

>  <label_class>
YES

$$$$
>  <molecule>
N#C/C(=C/c1ccc(O)c(O)c1)C(=O)NCCCCc1ccccc1

>  <assayed_target>
A549-TUBA1B-RELA

>  <label_class>
YES

$$$$
>  <molecule>
N#C/C(=C(/N)Sc1ccc(N)cc1)c1ccccc1C(F)(F)F

>  <assayed_target>
A549-TUBA1B-RELA

>  <label_class>
NO

$$$$
>  <molecule>
COc1cc(C(C)=O)ccc1OCCCN1CCC(c2noc3cc(F)ccc23)CC1 [iloperidone]

>  <assayed_target>
A549-TUBA1B-RELA

>  <label_class>
YES

$$$$
>  <molecule>
C=C1CN(Cc2ccc(C(=O)Nc3ccccc3N)cc2)C(=O)c2ccccc21

>  <assayed_target>
A549-TUBA1B-RELA

>  <label_class>
YES

$$$$
>  <molecule>
CC(C)(C(=O)O)c1ccc(C(O)CCCN2CCC(C(O)(c3ccccc3)c3ccccc3)CC2)cc1 (stereo not drawn) [fexofenadine]

>  <assayed_target>
A549-TUBA1B-RELA

>  <label_class>
NO

$$$$
>  <molecule>
C/C=C1/[C@H]2C=C(C)C[C@]1(N)c1ccc(=O)[nH]c1C2 [Huperzine A]

>  <assayed_target>
A549-TUBA1B-RELA

>  <label_class>
NO

$$$$
>  <molecule>
CNC(=O)COC(=O)N1CCC(CCc2ccc(Cl)cc2)CC1

>  <assayed_target>
A549-TUBA1B-RELA

>  <label_class>
NO

$$$$
>  <molecule>
C=C(C)[C@@H]1CC[C@]2(C(=O)O)CC[C@]3(C)[C@H](CC[C@@H]4[C@@]5(C)CC[C@H](O)C(C)(C)[C@@H]5CC[C@]43C)[C@@H]12 [betulinic-acid]

>  <assayed_target>
A549-TUBA1B-RELA

>  <label_class>
NO

$$$$
>  <molecule>
Cn1cc(-c2[nH]c3cc(NC(=O)[C@H](N)C4CCCCC4)cc4c3c2C=NNC4=O)cn1

>  <assayed_target>
A549-TUBA1B-RELA

>  <label_class>
YES

$$$$
>  <molecule>
C=CCc1ccc(O)c(-c2ccc(O)c(CC=C)c2)c1 [Honokiol]

>  <assayed_target>
A549-TUBA1B-RELA

>  <label_class>
NO

$$$$
>  <molecule>
CNNCc1ccc(C(=O)NC(C)C)cc1 [procarbazine]

>  <assayed_target>
A549-TUBA1B-RELA

>  <label_class>
NO

$$$$
>  <molecule>
Cc1cc2cc(NS(=O)(=O)c3ccc(C#N)cc3)ccc2n(C)c1=O

>  <assayed_target>
A549-TUBA1B-RELA

>  <label_class>
NO

$$$$
>  <molecule>
C=C[C@H]1C[N@@]2CC[C@H]1C[C@@H]2[C@@H](O)c1ccnc2ccc(OC)cc12 [quinidine]

>  <assayed_target>
A549-TUBA1B-RELA

>  <label_class>
NO

$$$$
>  <molecule>
O=C(Nc1cccc(Cl)c1)Nc1ncc(CCNc2ncnc3ccsc23)s1 [SNS 314 mesylate]

>  <assayed_target>
A549-TUBA1B-RELA

>  <label_class>
YES

$$$$
>  <molecule>
COc1cc(NC(=O)c2cccc(-n3cc(NC(=O)Nc4cccc(C)c4)cn3)c2)cc(OC)c1OC

>  <assayed_target>
A549-TUBA1B-RELA

>  <label_class>
YES

$$$$
>  <molecule>
c1ccc(CN(CC2=NCCN2)c2ccccc2)cc1 [antazoline]

>  <assayed_target>
A549-TUBA1B-RELA

>  <label_class>
YES

$$$$
>  <molecule>
Cc1ccc(-c2csc3ncnc(SCCC(=O)O)c23)cc1

>  <assayed_target>
A549-TUBA1B-RELA

>  <label_class>
NO

$$$$
>  <molecule>
CC(C)Cc1ccc(C(C)C(=O)O)cc1 (stereo not drawn) [ibuprofen]

>  <assayed_target>
A549-TUBA1B-RELA

>  <label_class>
NO

$$$$
>  <molecule>
O=C(NOC[C@H](O)CO)c1ccc(F)c(F)c1Nc1ccc(I)cc1F

>  <assayed_target>
A549-TUBA1B-RELA

>  <label_class>
YES

$$$$
>  <molecule>
C#CCN(C)Cc1ccccc1 [pargyline]

>  <assayed_target>
A549-TUBA1B-RELA

>  <label_class>
NO

$$$$
>  <molecule>
NCC[C@H](O)C(=O)N[C@H]1C[C@@H](N)[C@H](O[C@H]2O[C@H](CN)[C@@H](O)[C@H](O)[C@H]2O)[C@@H](O)[C@@H]1O[C@H]1O[C@H](CO)[C@@H](O)[C@H](N)[C@H]1O [Amikacin hydrate]

>  <assayed_target>
A549-TUBA1B-RELA

>  <label_class>
NO

$$$$
>  <molecule>
NC(=O)[C@@H](CCC(F)(F)F)N(Cc1ccc(-c2ncon2)cc1F)S(=O)(=O)c1ccc(Cl)cc1 [avagacestat]

>  <assayed_target>
A549-TUBA1B-RELA

>  <label_class>
NO

$$$$
>  <molecule>
CCc1c(C(=O)Nc2cc(S(=O)(=O)N(CC)CC)ccc2O)[nH]c(C)c1C(C)=O

>  <assayed_target>
A549-TUBA1B-RELA

>  <label_class>
NO

$$$$
>  <molecule>
CN1C(=O)/C(=C2/Nc3ccccc3/C2=N/O)c2ccc(Br)cc21

>  <assayed_target>
A549-TUBA1B-RELA

>  <label_class>
YES

$$$$
>  <molecule>
CN1c2ccc([N+](=O)[O-])cc2N=C(c2ccc(C(=O)O)cc2)c2cc3c(cc21)C(C)(C)CCC3(C)C

>  <assayed_target>
A549-TUBA1B-RELA

>  <label_class>
YES

$$$$
>  <molecule>
c1ccc(-c2n[nH]cc2-c2ccnc3ccccc23)nc1

>  <assayed_target>
A549-TUBA1B-RELA

>  <label_class>
YES

$$$$
>  <molecule>
O=C1CCc2cc(OCCCCc3nnnn3C3CCCCC3)ccc2N1 [Cilostazol]

>  <assayed_target>
A549-TUBA1B-RELA

>  <label_class>
NO

$$$$
>  <molecule>
Cn1cc(CCn2cnc(-c3cnn(C)c3)c2-c2ccc(C#N)cc2)cn1

>  <assayed_target>
A549-TUBA1B-RELA

>  <label_class>
NO

$$$$
>  <molecule>
Cc1c(-c2cnccn2)ssc1=S [Oltipraz]

>  <assayed_target>
A549-TUBA1B-RELA

>  <label_class>
NO

$$$$
>  <molecule>
NS(=O)(=O)c1cc(Cl)c(Cl)c(S(N)(=O)=O)c1 [diclofenamide]

>  <assayed_target>
A549-TUBA1B-RELA

>  <label_class>
NO

$$$$
>  <molecule>
CCCC(=O)O [Sodium butyrate]

>  <assayed_target>
A549-TUBA1B-RELA

>  <label_class>
NO

$$$$
>  <molecule>
C=C[C@H]1CN2CC[C@H]1C[C@H]2[C@H](O)c1ccnc2ccc(OC)cc12 [Quinine dihydrochloride]

>  <assayed_target>
A549-TUBA1B-RELA

>  <label_class>
NO

$$$$
